target: T1, PKC-α (purified isoform) (Homo sapiens (Human), UniProt P17252 2-672); experiment: competitive ELISA, coated purified PKC-α, vs anti-PKC α (SC-208); PRE 100 µM
T1 construct: also called purified PKC-alpha; commercially purified PKC-alpha
value_type: relative binding capacity (100-%n, DMSO subtracted) (%)

1) Ac-AKGIQEVKGGKDAQNLIGISI-NH2 (also called peptide PRE 5) [PRE 5] = 0
2) Ac-RDAQNLIGISI-NH2 (also called peptide PRE 11) [PRE 11] = 5.96
3) Ac-KDANQLIGISI-NH2 (also called peptide PRE 6) [PRE 6] = 0
